# measured-target: JAK3 (Homo sapiens, UniProt P52333)
The following compounds are shown together with reported IC50 values.

// Cn1cc(-c2cc3nccn3c(-c3cnn(C(CC#N)CC(C)(C)C)c3)n2)cn1 (centres unmarked) [Example 5] : IC50 value = > 1000 nM

For N#CCC(C1CC1)n1cc(-c2nc(C(=O)NC3CCCCC3)cc3nccn23)cn1 (centres unmarked) [Example 123] the compound record lists IC50 as > 1000 nM

Lab note: Cn1cc(-c2cc3nccn3c(-c3ccn(C4(CC#N)CN(CC(F)(F)F)C4)c3)n2)cn1 [Example 128] gave IC50 of > 1000 nM

// field: IC50; key: Cn1cc(-c2cc3nccn3c(-c3cnn(C4(CC#N)CCCCC4)c3)n2)cn1 [Example 22] ; value = > 1000 nM

IC50 measured on N#CCC(C1CC1)n1cc(-c2nc(-c3ccc4c(c3)CCNC4)cc3nccn23)cn1 (centres unmarked) [Example 52] = 100 to 1000 nM

Continuing:
get_value(item= CC#CCN1CC(CC#N)(n2cc(-c3nc(-c4cnn(C)c4)cc4nccn34)cn2)C1 [Example 75] , readout=IC50) returns > 1000 nM

Record CN1CCN(c2ccc(-c3cc4nccn4c(-c4cnn(C(CC#N)C5CC5)c4)n3)cc2)CC1 (centres unmarked) [Example 59] , field IC50: 100 to 1000 nM

Lab book: IC50 of Cn1cc(-c2cc3nccn3c(-c3cnn(C(CC#N)C4CC4)c3)n2)cn1 (single isomer, unassigned; enantiomer 1) [Example 3] noted as 100 to 1000 nM

---

# measured-target: UniProt:P23458
Structures can show the parent of a compound that is named as a salt.
// reported IC50 for each item listed

Solved cases below.
So for CC(C)n1cc(-c2cc3nccn3c(-c3cnn(C(CC#N)C4CC4)c3)n2)cn1 (stereo not shown) , the logged IC50 turned out to be 100 to 1000 nM

Reported IC50 ( Cn1cc(-c2cc3ncc(Cl)n3c(-c3cnn(C(CC#N)C4CC4)c3)n2)cn1 (stereo not shown) ) = 10 to 100 nM

---
Per the records, this molecule ( Cn1cc(-c2cc3nccn3c(-c3cnn(C(CC#N)C4CC4(F)F)c3)n2)cn1 (mixture of isomers) ) has IC50 equal to 10 to 100 nM

So, N#CCC(C1CCCC1)n1cc(-c2nc(-c3ccc(N4CCOCC4)cc3)cc3nccn23)cn1 (single isomer, unassigned) ? Its IC50 was < 10 nM

Record summary for CCCS(=O)(=O)N1CC(CC#N)(n2cc(-c3nc(-c4cnn(C)c4)cc4nccn34)cn2)C1 : reported IC50 = 100 to 1000 nM

Recorded IC50 (molecule Cn1cc(-c2cc3nccn3c(-c3cnn(C4(CC#N)CN(S(=O)(=O)C(F)(F)F)C4)c3)n2)cn1 ): < 10 nM

Memo: Cn1cc(-c2cc3nccn3c(-c3cnn(C(CC#N)c4ccccn4)c3)n2)cn1 (stereo not shown) , reported IC50: 100 to 1000 nM

Kindly note the recorded IC50 for Cc1nn(C2(CC#N)CN(CC(F)(F)F)C2)cc1-c1nc(-c2cnn(C)c2)cc2nccn12 , which is > 1000 nM

Record summary for Cc1cn(-c2cc3nccn3c(-c3cnn(C(CC#N)C4CC4)c3)n2)cn1 (stereo not shown) : reported IC50 = > 1000 nM

For Cn1cc(-c2cc3nccn3c(-c3ccn(C4(CC#N)CNC4)n3)n2)cn1 [Example 130, hydrochloride] the molecule record lists IC50 as > 1000 nM

Entry under test: Cn1cc(-c2cc3ncc(F)n3c(-c3cnn(C(CC#N)C4CC4)c3)n2)cn1 (stereo not shown) . Its IC50 was 100 to 1000 nM

IC50 for Cn1cc(-c2cc3nccn3c(-c3cnn(C4(CC#N)CN(CC(F)(F)C(F)(F)F)C4)c3)n2)cn1 is 10 to 100 nM

---

Reported values: IC50 for JAK1 (Homo sapiens), one per item.
Where a name gives a salt, the structure may show the parent alone.

Below, 6 compounds whose answers are already recorded.
CCn1cc(-c2cc3nccn3c(-c3cnn(C4(CC#N)CN(CC(F)(F)F)C4)c3)n2)cn1 has a reported IC50 of 100 to 1000 nM

Recorded IC50 (compound Cn1cc(-c2cc3nccn3c(-c3cnn(C4(CC#N)CNC4)c3)n2)cn1 [Example 62, hydrochloride] ): > 1000 nM

The compound listed as Cc1nn(C(CC#N)C2CCCC2)cc1-c1nc(-c2ccc(N3CCOCC3)cc2)cc2nccn12 (centres unmarked) shows IC50 equal to 100 to 1000 nM

Entry Cn1cc(-c2cc3nccn3c(-c3cnn(C4(CC#N)CN(CCF)C4)c3)n2)cn1 ; IC50 = 100 to 1000 nM

# IC50 of C[Si](C)(C)CCOCn1cc(-c2cc3nccn3c(-c3cnn(C(CC#N)C4CC4)c3)n2)cn1 (centres unmarked) = 100 to 1000 nM

Form field IC50, entry Cn1cc(-c2cc3nccn3c(-c3cnn(C4(CC#N)CN(S(=O)(=O)CCC(F)(F)F)C4)c3)n2)cn1 : 100 to 1000 nM

Further cases:
Recorded result, Cc1nnc(-c2cc3nccn3c(-c3cnn(C(CC#N)C4CC4)c3)n2)s1 (centres unmarked) , IC50: > 1000 nM

---

The following are reported IC50 results, target or system Human Tyk2 kinase domain (Homo sapiens, UniProt P29597).

Solved entries (count: 3):
I looked up N#CCC(C1CC1)n1cc(-c2nc(-c3ccc4c(c3)CCNC4)cc3nccn23)cn1 (stereo not shown) and its IC50 for Human Tyk2 kinase domain (Homo sapiens, UniProt P29597) was 10 to 100 nM

Cc1nn(C(CC#N)C2CC2)cc1-c1nc(-c2cnn(C)c2)cc2nccn12 (stereo not shown) tested on Human Tyk2 kinase domain (Homo sapiens, UniProt P29597) gave IC50: 10 to 100 nM

Tested on Human Tyk2 kinase domain (Homo sapiens, UniProt P29597), the item N#CCC(C1CC1)n1cc(-c2nc(C(=O)NC3CCCCC3)cc3nccn23)cn1 (stereo not shown) showed IC50 equal to 100 to 1000 nM

Moving on to the next molecule.
For the molecule Cc1cn(-c2cc3nccn3c(-c3cnn(C(CC#N)C4CC4)c3)n2)cn1 (stereo not shown) , the measured IC50 on Human Tyk2 kinase domain (Homo sapiens, UniProt P29597) was 10 to 100 nM

---

# measured-target: JAK3 (Homo sapiens, UniProt P52333)
# Sequence (P52333 1-1124): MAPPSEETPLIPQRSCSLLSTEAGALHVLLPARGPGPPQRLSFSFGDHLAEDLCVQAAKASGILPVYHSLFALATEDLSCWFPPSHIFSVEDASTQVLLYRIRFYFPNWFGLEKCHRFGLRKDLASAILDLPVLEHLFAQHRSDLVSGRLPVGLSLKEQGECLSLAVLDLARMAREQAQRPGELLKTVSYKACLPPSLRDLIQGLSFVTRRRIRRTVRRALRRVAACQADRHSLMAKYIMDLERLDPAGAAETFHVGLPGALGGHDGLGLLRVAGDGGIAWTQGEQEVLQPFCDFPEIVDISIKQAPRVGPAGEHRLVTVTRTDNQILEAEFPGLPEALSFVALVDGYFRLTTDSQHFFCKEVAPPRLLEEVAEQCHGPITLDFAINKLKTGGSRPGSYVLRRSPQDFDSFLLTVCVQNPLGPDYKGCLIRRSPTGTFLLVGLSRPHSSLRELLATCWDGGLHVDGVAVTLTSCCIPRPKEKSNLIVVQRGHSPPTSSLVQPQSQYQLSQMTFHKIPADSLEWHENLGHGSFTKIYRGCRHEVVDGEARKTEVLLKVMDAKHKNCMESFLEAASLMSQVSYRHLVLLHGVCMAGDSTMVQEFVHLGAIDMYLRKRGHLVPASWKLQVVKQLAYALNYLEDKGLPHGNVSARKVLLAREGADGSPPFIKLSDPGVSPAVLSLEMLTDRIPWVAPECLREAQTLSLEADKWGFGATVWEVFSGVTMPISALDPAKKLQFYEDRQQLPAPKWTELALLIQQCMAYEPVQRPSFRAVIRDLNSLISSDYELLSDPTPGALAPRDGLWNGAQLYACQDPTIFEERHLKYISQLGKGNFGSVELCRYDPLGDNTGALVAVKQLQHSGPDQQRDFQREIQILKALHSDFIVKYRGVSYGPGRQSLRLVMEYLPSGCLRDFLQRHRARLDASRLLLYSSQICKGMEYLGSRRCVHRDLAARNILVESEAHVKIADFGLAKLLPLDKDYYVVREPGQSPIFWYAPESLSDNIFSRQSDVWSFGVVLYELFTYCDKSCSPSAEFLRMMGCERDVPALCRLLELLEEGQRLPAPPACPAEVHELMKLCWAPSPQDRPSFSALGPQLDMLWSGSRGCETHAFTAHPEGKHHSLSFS
Measured IC50 values are reported for all entries that follow.

Check out these entries, answers already filled in.
Recorded IC50 (molecule Cn1cc(-c2cc3nccn3c(-c3cnn(C4(CC#N)CN(CCC(F)(F)F)C4)c3)n2)cn1 ): > 1000 nM

Given item Cn1cc(-c2cc3nccn3c(-c3cnn(C4(CC#N)CN(CCC#N)C4)c3)n2)cn1 , the value recorded as its IC50 is > 1000 nM

Record Cn1cc(-c2cc3nccn3c(-c3cnn(C(CC#N)c4ccccc4)c3)n2)cn1 (stereo not shown) . Reported IC50: 100 to 1000 nM

# IC50 of CCCN1CCC(CC#N)(n2cc(-c3nc(-c4cnn(C)c4)cc4nccn34)cn2)CC1 = > 1000 nM

Looking up CCS(=O)(=O)N1CC(CC#N)(n2cc(-c3nc(-c4cnn(C)c4)cc4nccn34)cn2)C1 , I see its IC50 listed as > 1000 nM

Lab note: Cn1cc(-c2cc3nccn3c(-c3cnn(C4(CC#N)CN(CC5CCC5)C4)c3)n2)cn1 gave IC50 of > 1000 nM

---
Measured IC50, CN1CCN(c2ccc(-c3cc4nccn4c(-c4cnn(C(CC#N)C5CC5)c4)n3)cn2)CC1 (stereo not shown) : 100 to 1000 nM

Consider Cn1cc(-c2cc3nccn3c(-c3cnn(C4(CC#N)CN(CC5CCOCC5)C4)c3)n2)cn1 . Its measured IC50 is > 1000 nM

Recorded result, Cn1cc(-c2cc3ncc(F)n3c(-c3cnn(C(CC#N)C4CC4)c3)n2)cn1 (stereo not shown) , IC50: 100 to 1000 nM

Entry Cn1cc(-c2cc3nccn3c(-c3cnn(C4(CC#N)CCCC4)c3)n2)cn1 — recorded IC50 = > 1000 nM

# molecule Cn1cc(-c2cc3nccn3c(-c3cnn(C4(CC#N)CN(CCF)C4)c3)n2)cn1 ; its IC50 = > 1000 nM

All values here come from patent US8962596B2.
